- Test system: glioma cell line SF-268
- test.summary: Cytotoxicity assay (SRB), SF-268
- Assay type: cell-based, Human
- condition.parameters: 3 days exposure, SRB staining
reported.endpoint: IC50 (nM)
Express your answer in nM, writing the number without its unit.

C/C1=C/C[C@@H](/C(C)=C/c2csc(C)n2)OC(=O)C[C@H](O)C(C)(C)C(=O)[C@H](C)[C@@H](O)[C@@H](C)CCC1 [Epothilone D, reference compound] : 7

Please turn your attention to the following entry.
### Prompt Provide only the value of recorded IC50 for C/C(=C\c1csc(C)n1)[C@H]1OC(=O)C[C@H](O)C(C)(C)C(=O)[C@H](C)[C@@H](O)[C@@H](C)CCC[C@@]2(C)O[C@H]2[C@@H]1C [Compound 3, (R)-C14-methyl epothilone B]
### Response 3

###

- Test system: multi-drug resistant breast carcinoma cell line NCI/ADR
- test.summary: Cytotoxicity assay (SRB), NCI/ADR
- Type: cell-based, Human
- condition.parameters: Homo sapiens, NCI/ADR-RES, 72 h, 3 days exposure, SRB staining
- Procedure: Cell lines and culture conditions: Human breast carcinoma cell line MCF-7, multi-drug resistant breast carcinoma cell line NCI/ADR, non-small cell lung carcinoma cell line NCI-H460 and glioma cell line SF-268 were obtained from the National Cancer Institute. […] Cytoloxicity assays: Tumor cells were seeded in 100 μl at 5000 (MCF-7), 7500 (NCI/ADR), 5000 (NCI-H460) and 7500 (SF-268) cells per well in 96-well plates. […] The IC50 values were calculated using a KaleidaGraph program. […]
reported.endpoint: IC50 (nM)
Number only, in nM; omit the unit.

### Prompt # return recorded IC50 for input C/C1=C/[C@H](C)[C@@H](/C(C)=C/c2csc(C)n2)OC(=O)C[C@H](O)C(C)(C)C(=O)[C@H](C)[C@@H](O)[C@@H](C)CCC1 [Compound 12, (S)-C14-methyl epothilone D]
### Response 238

###

- System: non-small cell lung carcinoma cell line NCI-H460
- test.summary: Cytotoxicity assay (SRB), NCI-H460
- Type: cell-based, Human
- condition.parameters: 3 days exposure, SRB staining
Entries and their IC50
Could you give me the number in nM? Just the number is fine.

C/C(=C\c1csc(C)n1)[C@H]1OC(=O)C[C@H](O)C(C)(C)C(=O)[C@H](C)[C@@H](O)[C@@H](C)CCC[C@@]2(C)O[C@H]2[C@@H]1C [Compound 3, (R)-C14-methyl epothilone B] : 3

Now turn to the next compound.
### Prompt Specify reported IC50 for the compound shown: C/C1=C/C[C@@H](/C(C)=C/c2csc(C)n2)OC(=O)C[C@H](O)C(C)(C)C(=O)[C@H](C)[C@@H](O)[C@@H](C)CCC1 [Epothilone D, reference compound]
### Response 20

###

- Tested on: glioma cell line SF-268
- test.summary: Cytotoxicity assay (SRB), SF-268
- Type: cell-based, Human
- condition.parameters: Homo sapiens, SF-268, 72 h, 3 days exposure, SRB staining
reported.endpoint: IC50 (nM)
Numeric only. Scale: nM

### Prompt Give the value of IC50 reported for the following: C/C1=C/[C@H](C)[C@@H](/C(C)=C/c2csc(C)n2)OC(=O)C[C@H](O)C(C)(C)C(=O)[C@H](C)[C@@H](O)[C@@H](C)CCC1 [Compound 12, (S)-C14-methyl epothilone D]
### Response 42
